The measurements presented in this section are drawn from the supplement of paper PMC9112550.

test system: Escherichia coli TOP10; assay: shrunken log2 fold change of peptide-encoding DNA abundance (4.5 h post-induction vs induction); higher = less antimicrobial activity (less host growth inhibition); conditions: time post-induction: 4.5 h; library: site-saturation at positions 5, 18, 19, 20
Documented shrunken log2 fold change across a set of sequences
Reply: number alone, nothing else.

Here is how some sequences turned out for shrunken log2 fold change.
RRIRIRPPRLPRPRPRPDWMPRP :: -0.131
RRIRMRPPRLPRPRPRPFWEPRP :: 0.0748

I am curious: what shrunken log2 fold change value has been reported for RRIRFRPPRLPRPRPRPTVWPRP ?
0.19

I am curious: what shrunken log2 fold change value has been reported for RRIRNRPPRLPRPRPRPIQEPRP ?
-0.0116

I am curious: what shrunken log2 fold change value has been reported for RRIRERPPRLPRPRPRPCRLPRP ?
-0.197

I am curious: what shrunken log2 fold change value has been reported for RRIRVRPPRLPRPRPRPHPGPRP ?
-0.325

I am curious: what shrunken log2 fold change value has been reported for RRIRLRPPRLPRPRPRPMFFPRP ?
-0.381

I am curious: what shrunken log2 fold change value has been reported for RRIRFRPPRLPRPRPRPEQLPRP ?
0.178

I am curious: what shrunken log2 fold change value has been reported for RRIRDRPPRLPRPRPRPWNQPRP ?
-0.0409

I am curious: what shrunken log2 fold change value has been reported for RRIRHRPPRLPRPRPRPGLFPRP ?
-0.0985

I am curious: what shrunken log2 fold change value has been reported for RRIRIRPPRLPRPRPRPMWVPRP ?
-0.11

I am curious: what shrunken log2 fold change value has been reported for RRIRARPPRLPRPRPRPRKSPRP ?
0.778

I am curious: what shrunken log2 fold change value has been reported for RRIRGRPPRLPRPRPRPTKSPRP ?
0.583

I am curious: what shrunken log2 fold change value has been reported for RRIRERPPRLPRPRPRPYSNPRP ?
-0.905

I am curious: what shrunken log2 fold change value has been reported for RRIRVRPPRLPRPRPRPKWGPRP ?
0.155

====

test system: Escherichia coli TOP10; test: shrunken log2 fold change of peptide-encoding DNA abundance (4.5 h post-induction vs induction); higher = less antimicrobial activity (less host growth inhibition); conditions: time post-induction: 4.5 h; library: site-saturation at positions 5, 18, 19, 20
measurement-name: shrunken log2 fold change
Reply: number alone, nothing else.

RRIRGRPPRLPRPRPRPYWPPRP :: 0.0961

I am curious: what shrunken log2 fold change value has been reported for RRIRARPPRLPRPRPRPKAAPRP ?
0.878

I am curious: what shrunken log2 fold change value has been reported for RRIRSRPPRLPRPRPRPAQSPRP ?
0.234

I am curious: what shrunken log2 fold change value has been reported for RRIRLRPPRLPRPRPRPYQDPRP ?
-0.106

====

Documented shrunken log2 fold change across a set of sequences
tested on: Escherichia coli TOP10; assay: shrunken log2 fold change of peptide-encoding DNA abundance (4.5 h post-induction vs induction); higher = less antimicrobial activity (less host growth inhibition); conditions: time post-induction: 4.5 h; library: site-saturation at positions 5, 18, 19, 20
Reply: number alone, nothing else.

Here is how some sequences turned out for shrunken log2 fold change.
RRIRERPPRLPRPRPRPPMHPRP :: -0.171
RRIRWRPPRLPRPRPRPKQKPRP :: 0.0665
RRIRGRPPRLPRPRPRPNLEPRP :: 0.678
RRIRFRPPRLPRPRPRPVDQPRP :: 0.0138
RRIRKRPPRLPRPRPRPVKRPRP :: 0.0121
RRIRIRPPRLPRPRPRPLYPPRP :: -0.561
RRIRVRPPRLPRPRPRPTAMPRP :: 0.0686
RRIRNRPPRLPRPRPRPHKCPRP :: -0.0755
RRIRMRPPRLPRPRPRPNLTPRP :: 0.0283
RRIRLRPPRLPRPRPRPMVGPRP :: -0.135

Pending sequence:
I am curious: what shrunken log2 fold change value has been reported for RRIRQRPPRLPRPRPRPPPHPRP ?
0.737

====

test system: Escherichia coli TOP10; assay: shrunken log2 fold change of peptide-encoding DNA abundance (4.5 h post-induction vs induction); higher = less antimicrobial activity (less host growth inhibition); details: time post-induction: 4.5 h; library: site-saturation at positions 5, 18, 19, 20
Documented shrunken log2 fold change across a set of sequences

RRIRPRPPRLPRPRPRPQERPRP :: 0.0985

I am curious: what shrunken log2 fold change value has been reported for RRIRPRPPRLPRPRPRPDLPPRP ?
0.315

I am curious: what shrunken log2 fold change value has been reported for RRIRYRPPRLPRPRPRPNVSPRP ?
-0.0178

I am curious: what shrunken log2 fold change value has been reported for RRIRPRPPRLPRPRPRPTGIPRP ?
0.726

====

system: Escherichia coli TOP10; assay: shrunken log2 fold change of peptide-encoding DNA abundance (4.5 h post-induction vs induction); higher = less antimicrobial activity (less host growth inhibition); details: time post-induction: 4.5 h; library: site-saturation at positions 5, 18, 19, 20
Given measured shrunken log2 fold change, output Yes if it is greater than or equal to -0.07 and No if not.

Solved cases below.
RRIRQRPPRLPRPRPRPTWFPRP :: Yes
RRIRPRPPRLPRPRPRPCRCPRP :: Yes
RRIRTRPPRLPRPRPRPFHHPRP :: No
RRIRARPPRLPRPRPRPNKIPRP :: No
RRIRTRPPRLPRPRPRPHCMPRP :: No

Please tell me: is the sequence RRIRYRPPRLPRPRPRPARIPRP at or over -0.07 in terms of shrunken log2 fold change?
Yes

Please tell me: is the sequence RRIRCRPPRLPRPRPRPPIPPRP at or over -0.07 in terms of shrunken log2 fold change?
Yes

Please tell me: is the sequence RRIRDRPPRLPRPRPRPHQFPRP at or over -0.07 in terms of shrunken log2 fold change?
No

Please tell me: is the sequence RRIRTRPPRLPRPRPRPKRPPRP at or over -0.07 in terms of shrunken log2 fold change?
No

====

tested on: Escherichia coli TOP10; experiment: shrunken log2 fold change of peptide-encoding DNA abundance (4.5 h post-induction vs induction); higher = less antimicrobial activity (less host growth inhibition); details: time post-induction: 4.5 h; library: site-saturation at positions 5, 18, 19, 20
Documented shrunken log2 fold change across a set of sequences
Reply: number alone, nothing else.

Here is how some sequences turned out for shrunken log2 fold change.
RRIRCRPPRLPRPRPRPQKRPRP :: 0.0237
RRIRKRPPRLPRPRPRPATFPRP :: -0.0215
RRIRVRPPRLPRPRPRPEVYPRP :: -0.0457
RRIRTRPPRLPRPRPRPEAVPRP :: -0.0221

I am curious: what shrunken log2 fold change value has been reported for RRIRQRPPRLPRPRPRPKAGPRP ?
0.0875

I am curious: what shrunken log2 fold change value has been reported for RRIRERPPRLPRPRPRPEKEPRP ?
0.0662

I am curious: what shrunken log2 fold change value has been reported for RRIRCRPPRLPRPRPRPNHQPRP ?
-0.421

I am curious: what shrunken log2 fold change value has been reported for RRIRKRPPRLPRPRPRPQHNPRP ?
-0.145

I am curious: what shrunken log2 fold change value has been reported for RRIRYRPPRLPRPRPRPMIAPRP ?
-0.188

I am curious: what shrunken log2 fold change value has been reported for RRIRGRPPRLPRPRPRPCHPPRP ?
-0.119

I am curious: what shrunken log2 fold change value has been reported for RRIRYRPPRLPRPRPRPNIMPRP ?
-1.42

I am curious: what shrunken log2 fold change value has been reported for RRIRHRPPRLPRPRPRPINRPRP ?
0.0787

I am curious: what shrunken log2 fold change value has been reported for RRIRMRPPRLPRPRPRPELAPRP ?
3.6

====

system: Escherichia coli TOP10; experiment: shrunken log2 fold change of peptide-encoding DNA abundance (4.5 h post-induction vs induction); higher = less antimicrobial activity (less host growth inhibition); conditions: time post-induction: 4.5 h; library: site-saturation at positions 5, 18, 19, 20;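 note: peptides expressed intracellularly from a pBAD plasmid library in pooled LB shake-flask culture, induced with 0.3% L-arabinose, DNA abundance read by NGS, three biological replicates, DESeq2 with apeglm shrinkage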
measurement-name: shrunken log2 fold change
Reply: number alone, nothing else.

Here is how some sequences turned out for shrunken log2 fold change.
RRIRDRPPRLPRPRPRPNPSPRP :: 0.13
RRIRNRPPRLPRPRPRPWMQPRP :: -0.218
RRIRGRPPRLPRPRPRPLCQPRP :: 0.712
RRIRLRPPRLPRPRPRPIHKPRP :: 0.195
RRIRERPPRLPRPRPRPFTLPRP :: -0.21

What value of shrunken log2 fold change on Escherichia coli TOP10 does RRIRFRPPRLPRPRPRPTDEPRP have?
0.00361

What value of shrunken log2 fold change on Escherichia coli TOP10 does RRIRQRPPRLPRPRPRPSYTPRP have?
-1.34

What value of shrunken log2 fold change on Escherichia coli TOP10 does RRIRHRPPRLPRPRPRPFHTPRP have?
-0.0888

What value of shrunken log2 fold change on Escherichia coli TOP10 does RRIRSRPPRLPRPRPRPSYNPRP have?
-0.759

What value of shrunken log2 fold change on Escherichia coli TOP10 does RRIRWRPPRLPRPRPRPPVEPRP have?
0.392

What value of shrunken log2 fold change on Escherichia coli TOP10 does RRIRFRPPRLPRPRPRPKSVPRP have?
0.0124

What value of shrunken log2 fold change on Escherichia coli TOP10 does RRIRMRPPRLPRPRPRPPCNPRP have?
0.0147

What value of shrunken log2 fold change on Escherichia coli TOP10 does RRIRERPPRLPRPRPRPIAFPRP have?
0.0152
